Measured Target: human platelets (thromboxane receptor sites) (Homo sapiens)
Construct: Platelet-rich plasma is obtained from fresh, citrated human blood; endogenous in cells; host or cells: human platelets (platelet-rich plasma from fresh, citrated human blood)
Sequence (P21731 1-343): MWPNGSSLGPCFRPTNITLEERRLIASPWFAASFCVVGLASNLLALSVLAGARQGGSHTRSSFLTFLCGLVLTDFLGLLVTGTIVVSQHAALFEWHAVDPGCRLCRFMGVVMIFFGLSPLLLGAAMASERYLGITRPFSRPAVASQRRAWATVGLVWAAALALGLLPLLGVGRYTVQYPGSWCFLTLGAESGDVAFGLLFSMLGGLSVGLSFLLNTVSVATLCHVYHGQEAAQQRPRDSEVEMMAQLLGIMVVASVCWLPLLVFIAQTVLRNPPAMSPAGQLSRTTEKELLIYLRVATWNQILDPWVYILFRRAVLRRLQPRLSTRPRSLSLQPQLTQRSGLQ
Method Summary: Human platelet system: antagonism of aggregation by 11,9-(epoxymethano) PGH2
Format: cell-based
Cond: against 11,9-epoxymethano analogue of PGH2; compound added 5 minutes previously; Gaddum-Schild Equation; read-out: AFFINITY CONSTANTS (KB), Human Platelets (converted)
This listing pairs molecules with measured log10 of Kb.
The common logarithm of Kb in µM is what is listed.

molecule="O=C(O)CCC/C=C\\C[C@@H]1[C@@H](C=NOCc2ccc(Cl)cc2)[C@@H]2C=C[C@H]1C2 (relative stereo)" value_reported=0.68
molecule="O=C(O)CCC/C=C\\C[C@@H]1[C@@H](C=NOCCOc2ccc(F)cc2)[C@@H]2C=C[C@H]1C2 (relative stereo)" value_reported=1.40
molecule="O=C(O)CCC/C=C\\C[C@H]1[C@H]2CC[C@H](C2)[C@@H]1C=NOCc1ccc(F)cc1 (relative stereo)" value_reported=0.24
molecule="O=C(O)CCC/C=C\\C[C@H]1[C@H]2CC[C@H](C2)[C@@H]1C=NOC(c1ccccc1)c1ccccc1 (relative stereo)" value_reported=-1.68
molecule="O=C(O)CCC/C=C\\C[C@@H]1[C@@H](C=NOCCOc2ccc(Cl)cc2)[C@@H]2C=C[C@H]1C2 (relative stereo)" value_reported=1.00

Kindly review the next molecule as well.
O=C(O)CCC/C=C\C[C@@H]1[C@@H](C=NOCCOc2ccccc2)[C@@H]2C=C[C@H]1C2 (relative stereo) has a reported log10 of Kb of 1.30

The measurements presented in this section are drawn from patent US4430345A.
